// values below are reported Ki
molecular target: Transient receptor potential cation channel subfamily V member 1 (Rattus norvegicus, UniProt O35433); test: Displacement of [3H]RTX from rat TRPV1 receptor expressed in CHO cells after 60 mins by scintillation counting; type: cell-based; details: read-out: Ki
Sequence (O35433 whole entry): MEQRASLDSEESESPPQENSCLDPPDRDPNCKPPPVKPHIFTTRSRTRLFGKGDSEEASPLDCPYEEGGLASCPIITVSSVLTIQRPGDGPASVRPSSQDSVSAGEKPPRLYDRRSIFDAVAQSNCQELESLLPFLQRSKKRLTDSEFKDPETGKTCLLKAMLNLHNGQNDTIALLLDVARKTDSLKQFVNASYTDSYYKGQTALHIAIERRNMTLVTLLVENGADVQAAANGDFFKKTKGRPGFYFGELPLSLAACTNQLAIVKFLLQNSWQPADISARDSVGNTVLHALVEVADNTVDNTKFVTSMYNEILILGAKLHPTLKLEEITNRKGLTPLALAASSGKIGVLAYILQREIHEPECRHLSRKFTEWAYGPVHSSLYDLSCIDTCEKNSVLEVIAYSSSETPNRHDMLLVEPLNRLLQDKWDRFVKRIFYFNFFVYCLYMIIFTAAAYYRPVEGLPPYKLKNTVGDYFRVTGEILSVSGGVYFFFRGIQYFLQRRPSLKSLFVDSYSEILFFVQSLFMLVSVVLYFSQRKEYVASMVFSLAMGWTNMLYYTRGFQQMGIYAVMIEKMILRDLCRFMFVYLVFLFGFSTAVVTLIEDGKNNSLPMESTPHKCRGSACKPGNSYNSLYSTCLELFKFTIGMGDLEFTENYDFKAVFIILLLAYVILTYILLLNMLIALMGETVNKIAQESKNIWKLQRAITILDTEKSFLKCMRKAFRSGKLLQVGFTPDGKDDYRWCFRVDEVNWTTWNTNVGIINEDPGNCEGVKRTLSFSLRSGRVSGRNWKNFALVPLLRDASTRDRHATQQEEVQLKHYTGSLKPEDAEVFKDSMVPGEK
RESULT_TYPE: Ki

compound="Cc1cc(C(C)C(=O)NCc2ccc(C(C)(C)C)cc2)ccc1NS(C)(=O)=O (stereo not given)" val="32.8 nM"
compound=C[C@@H](C(=O)NCc1ccc(C(C)(C)C)cc1)c1ccc(NS(C)(=O)=O)c(F)c1 val="750 nM"
compound="CC(C(=O)NCc1ccc(C(C)(C)C)cc1)c1ccc(NS(C)(=O)=O)c(N2CCN(C(=O)OC(C)(C)C)CC2)c1 (stereo not given)" val="7000 nM"
compound="CC(C(=O)NCc1ccc(C(C)(C)C)cc1)c1ccc(NS(C)(=O)=O)c(F)c1 (racemic)" val="46.2 nM"
compound=C[C@H](C(=O)NCc1ccc(C(C)(C)C)cc1)c1ccc(NS(C)(=O)=O)c(F)c1 val="24.4 nM"
